Every entry's value here was drawn from patent US11274083B2.

# Test system: Alopecurus myosuroides
# measurementNotes: Herbicidal action post-emergence, greenhouse pot test
# Format: in vivo
# conditionSet: application rate 80 g/ha, scored visually after about 3 weeks vs untreated controls
Parameter Alopecurus myosuroides (Efficacy in %): see the listing below.
Number only, in %; omit the unit.

Known Alopecurus myosuroides (Efficacy in %) results, listed for orientation:
COC(=O)CC(C)OC(=O)C(C)Sc1cc(-n2c(=O)cc(C(F)(F)F)n(C)c2=O)c(F)cc1Cl (stereo not drawn)
80
CCOC(=O)CCOC(=O)C(C)Sc1cc(-n2c(=O)cc(C(F)(F)F)n(C)c2=O)c(F)cc1Cl (stereo not drawn)
100
CCCOC(=O)CCOC(=O)C(C)Sc1cc(-n2c(=O)cc(C(F)(F)F)n(C)c2=O)c(F)cc1Cl (stereo not drawn)
90

The compound identified as COC(=O)CCOC(=O)CSc1cc(-n2c(=O)cc(C(F)(F)F)n(C)c2=O)c(F)cc1Cl registered its Alopecurus myosuroides (Efficacy in %) at 80

Kindly note the recorded Alopecurus myosuroides (Efficacy in %) for CC(Sc1cc(-n2c(=O)cc(C(F)(F)F)n(C)c2=O)c(F)cc1Cl)C(=O)OC1CCOC1=O (stereo not drawn) , which is 90

Value of measured Alopecurus myosuroides (Efficacy in %) for the entry CC(Sc1cc(-n2c(=O)cc(C(F)(F)F)n(C)c2=O)c(F)cc1Cl)C(=O)OCC1CCC(=O)N1 (stereo not drawn) : 90

Looking up CCNC(=O)COC(=O)C(C)Sc1cc(-n2c(=O)cc(C(F)(F)F)n(C)c2=O)c(F)cc1Cl (stereo not drawn) , I found its Alopecurus myosuroides (Efficacy in %) recorded as 80

The recorded Alopecurus myosuroides (Efficacy in %) for CC(C)NC(=O)COC(=O)C(C)Sc1cc(-n2c(=O)cc(C(F)(F)F)n(C)c2=O)c(F)cc1Cl (stereo not drawn) is 80

Given item COC(=O)CC(CC(=O)OC)OC(=O)C(C)Sc1cc(-n2c(=O)cc(C(F)(F)F)n(C)c2=O)c(F)cc1Cl (stereo not drawn) , the value recorded as its Alopecurus myosuroides (Efficacy in %) is 90

Summary for this compound, COC(=O)C(C)(C)OC(=O)C(C)Sc1cc(-n2c(=O)cc(C(F)(F)F)n(C)c2=O)c(F)cc1Cl (stereo not drawn) : Alopecurus myosuroides (Efficacy in %) is 80

The value of Alopecurus myosuroides (Efficacy in %) measured for the compound CC(Sc1cc(-n2c(=O)cc(C(F)(F)F)n(C)c2=O)c(F)cc1Cl)C(=O)OCCC(N)=O (stereo not drawn) turned out to be 90

Entry COC(=O)CCOC(=O)C(C)Sc1cc(-n2c(=O)cc(C(F)(F)F)n(C)c2=O)c(F)cc1Cl (stereo not drawn) ; Alopecurus myosuroides (Efficacy in %) = 100

Query CCOC(=O)CC(C)OC(=O)C(C)Sc1cc(-n2c(=O)cc(C(F)(F)F)n(C)c2=O)c(F)cc1Cl (stereo not drawn) yields Alopecurus myosuroides (Efficacy in %) of 90

Measured Alopecurus myosuroides (Efficacy in %) of CNC(=O)COC(=O)C(C)Sc1cc(-n2c(=O)cc(C(F)(F)F)n(C)c2=O)c(F)cc1Cl (stereo not drawn) : 80

Query COC(=O)CC(CC(=O)OC)OC(=O)CSc1cc(-n2c(=O)cc(C(F)(F)F)n(C)c2=O)c(F)cc1Cl yields Alopecurus myosuroides (Efficacy in %) of 80

Measured Alopecurus myosuroides (Efficacy in %) of CC(Sc1cc(-n2c(=O)cc(C(F)(F)F)n(C)c2=O)c(F)cc1Cl)C(=O)OC1CCNC1=O (stereo not drawn) : 100

Recorded result, COC(=O)C(C)(C)COC(=O)C(C)Sc1cc(-n2c(=O)cc(C(F)(F)F)n(C)c2=O)c(F)cc1Cl (stereo not drawn) , Alopecurus myosuroides (Efficacy in %): 80

// recorded Alopecurus myosuroides (Efficacy in %) for CCC(Sc1cc(-n2c(=O)cc(C(F)(F)F)n(C)c2=O)c(F)cc1Cl)C(=O)OCCC(=O)OC (stereo not drawn) : 100
